These data points were gathered from ChEMBL document CHEMBL5058577.

tested on: Fibroblast; assay: Multiplex assay against human fibroblast; assay type: toxicity, cell-based; settings: 24 h, 1 µM, compound concentration 1 uM, replicate 2
Non-standard residues stand in square brackets, D forms with d. Residues, ends and D or L forms follow the SMILES beside them.
measurement-type: Population Normal (%)
One number for each entry, in %.

molecule	target-under-test	Population Normal (%)
O=c1nc2[nH]c3ccccc3nc-2c(=O)[nH]1	Fibroblast	95

For each of the items listed, what is its Population Normal (%)?
1. CCc1nn2c(C)cc(C)nc2c1Cc1ccc(-c2nnc(C3CCNCC3)o2)cc1
2. CC(C)C[C@@H]1NC(=O)[C@@H](C(C)C)NC(=O)[C@@H]2CCCN2C(=O)[C@@H](CC(=O)O)NC(=O)[C@@H](Cc2c[nH]c3ccccc23)NC1=O [BQ-123] (cyclo(L[dW][dD]P[dV]))
3. O=C(NCCNCC(O)COc1ccc(O)cc1)N1CCOCC1.O=C(NCCNCC(O)COc1ccc(O)cc1)N1CCOCC1.O=C(O)/C=C/C(=O)O (stereo not drawn) [XAMOTEROL FUMARATE]
4. OCCCNc1cc(-c2ccnc(Nc3cccc(Cl)c3)n2)ccn1

Result ::
[92, 93, 97, 96]

For each of the items listed, what is its Population Normal (%)?
1. Cc1nn(C)c2nc(NNC(=O)Nc3cc(Cl)nc(Cl)c3)cc(C(C)C)c12
2. CCCCC[C@H](O)/C=C/[C@H]1[C@H](O)CC(=O)[C@@H]1CCCCCCC(=O)O
3. CC(C)(O)C(=O)N1CCN(c2ccc(C(F)(F)F)c(C3=C(c4c[nH]c5ccccc45)C(=O)NC3=O)c2)CC1
4. Nc1nc(-c2ccco2)c2cnn(Cc3ccccc3F)c2n1
5. CN1C[C@H](C(=O)N[C@]2(C)O[C@@]3(O)[C@@H]4CCCN4C(=O)[C@H](Cc4ccccc4)N3C2=O)C[C@@H]2c3cccc4[nH]cc(c34)C[C@H]21.CS(=O)(=O)O [DIHYDROERGOTAMINE MESYLATE]
6. COc1cc(Nc2ncc3c(n2)-c2ccc(Cl)cc2C(c2c(F)cccc2OC)=NC3)ccc1C(=O)O
7. COc1c(Nc2ccc(S(C)(=O)=O)nc2C)ncnc1OC1CCN(C(=O)OC(C)C)CC1
8. O=C(O)CCC/C=C\CC1C(O)CC(O)C1/C=C/C(O)COc1cccc(Cl)c1 (stereo not drawn)

Result ::
[97, 97, 91, 93, 95, 95, 89, 96]

For each of the items listed, what is its Population Normal (%)?
1. CN1CCN(c2ccc(Nc3c4ccccc4nc4ccccc34)cc2)CC1.Cl.Cl.O
2. Cc1cc(=O)n(C)c2cc(N3C(=O)CC[C@H](NS(=O)(=O)CC(C)C)[C@H]3c3ccc(Cl)cc3)ccc12
3. N[C@](CC1c2ccccc2Oc2ccccc21)(C(=O)O)[C@H]1C[C@@H]1C(=O)O

Result ::
100
89
95

For each of the items listed, what is its Population Normal (%)?
1. COC(c1ccccc1)(c1ccccc1)[C@H](Oc1nc(C)cc(C)n1)C(=O)O
2. C=CCN1C[C@H](C(=O)N(CCCN(C)C)C(=O)NCC)C[C@@H]2c3cccc4[nH]cc(c34)C[C@H]21
3. O=C(Nc1cc(-c2ccccc2)nn1-c1ccccc1F)c1ccc([N+](=O)[O-])cc1
4. CCCCCCNC(=O)Nc1ccc(S(=O)(=O)Nc2ccc(CCNC[C@H](O)COc3ccc(O)cc3)cc2)cc1

Result ::
1: 94; 2: 93; 3: 92; 4: 97

For each of the items listed, what is its Population Normal (%)?
1. CCC(=O)OCC(=O)[C@@]1(OC(=O)CC)[C@@H](C)C[C@H]2[C@@H]3CCC4=CC(=O)C=C[C@]4(C)[C@@]3(Cl)[C@@H](O)C[C@@]21C [BECLOMETHASONE DIPROPIONATE]
2. Cc1ccc(OCC(O)C(C)NC(C)C)c2c1CCC2.Cl (stereo not drawn)
3. CN1CCN2c3ccccc3Cc3ccccc3C2C1.Cl (stereo not drawn) [MIANSERIN HYDROCHLORIDE]

Result ::
93
84
96

For each of the items listed, what is its Population Normal (%)?
1. COc1ccc2[nH]c(I)c(CCNC(C)=O)c2c1
2. COCCn1c(C)c(C)s/c1=N\C(=O)C1C(C)(C)C1(C)C

Result ::
[94, 96]

For each of the items listed, what is its Population Normal (%)?
1. CC(C)C[C@H](CO)Nc1nc(S[C@@H](C)c2ccccc2)nc2nc(N)sc12
2. COc1cc2nc(N3CCN(C(=O)COc4c(OC)cccc4C(C)C)CC3)nc(N)c2cc1OC.Cl.Cl
3. COCCCN1CCC(NC(=O)c2cc(Cl)c(N)c3c2OCC3)CC1 [PRUCALOPRIDE]
4. S=C(NCCCc1c[nH]cn1)NCCCN(Cc1ccc(Cl)c(Cl)c1)c1ccc(Br)cn1

Result ::
99
88
92
98

For each of the items listed, what is its Population Normal (%)?
1. CC(F)(F)CN1CCOc2c(nn(-c3ccccc3Cl)c2-c2ccc(Cl)cc2)C1=O
2. Cc1c(Cc2ccc3ccccc3n2)c2cc(F)ccc2n1CC(=O)O
3. Cc1cc(-c2ccc3c(c2)CC[C@H]3N2CC3(CCN(C(=O)Cc4cn5cc(C)sc5n4)CC3)C2)ncn1
4. C[C@@H]1CC(=O)Nc2cccc(-c3ccc4c(c3)c(-c3cnn(C)c3)nn4C)c2N1

Result ::
1. 95
2. 94
3. 96
4. 92
